Data origin, for the record: ChEMBL document CHEMBL3596126

Recorded viability at 6 h, 20 ug/ml by entry
# protocol_summary: Cytotoxicity against HEK293 cells assessed as cell survival at 20 ug/ml after 6 hrs by SRB assay relative to control
# Assay type: cell-based
# assay_conditions: human, read-out: Survival
Where a SMILES comes first, the peptide text is derived from it. Side-chain parts run from the residue outwards. The star is where a group is joined. Cbz = O=C(OCc1ccccc1)*; Boc = CC(C)(C)OC(=O)*
Reply with just the number (in %).

The following compounds have reported results that may help.
Query: # viability at 6 h, 20 ug/ml lookup, item `O=C(N[C@@H](Cc1ccccc1)C(=O)N[C@@H](CO)C(=O)O)OCc1ccccc1`
Response: 119

Query: Follow-up entry: `C[C@H](OC(=O)CNC(=O)OC(C)(C)C)[C@H](NC(=O)[C@@H](N)Cc1ccccc1)C(=O)O`
Response: 103

Query: Follow-up entry: `C[C@H](NC(=O)OCc1ccccc1)C(=O)N[C@H](CO)C(=O)O`
Response: 123

Query: Follow-up entry: `CC(C)(C)OC(=O)NCC(=O)OC[C@@H](NC(=O)[C@H](Cc1ccccc1)NC(=O)OCc1ccccc1)C(=O)O`
Response: 121

Query: Follow-up entry: `C[C@H](OC(=O)CNC(=O)OC(C)(C)C)[C@H](NC(=O)[C@H](Cc1ccccc1)NC(=O)OCc1ccccc1)C(=O)O`
Response: 122

Query: Follow-up entry: C[C@H](NC(=O)OCc1ccccc1)C(=O)N[C@@H](COC(=O)CNC(=O)OC(C)(C)C)C(=O)O (Cbz-Ala-Ser([Gly-Boc])-OH)
Response: 108

New cases:
Query: # viability at 6 h, 20 ug/ml lookup, item `C[C@H](NC(=O)OCc1ccccc1)C(=O)N[C@@H](Cc1ccccc1)C(=O)O`
Response: 113

Query: Follow-up entry: `C[C@H](O)[C@H](NC(=O)[C@H](Cc1ccccc1)NC(=O)OCc1ccccc1)C(=O)O`
Response: 122

Query: Follow-up entry: `O=C(N[C@@H](Cc1ccccc1)C(=O)NCC(=O)n1nnc2ccccc21)OCc1ccccc1`
Response: 96.9

Query: Follow-up entry: `C[C@H](NC(=O)OCc1ccccc1)C(=O)N[C@@H](CO)C(=O)O`
Response: 110

----------
Recorded Ratio by entry
# assay_system: NAD(P)H dehydrogenase [quinone] 1 (Mus musculus) (UniProt Q64669)
# Sequence (Q64669 whole entry): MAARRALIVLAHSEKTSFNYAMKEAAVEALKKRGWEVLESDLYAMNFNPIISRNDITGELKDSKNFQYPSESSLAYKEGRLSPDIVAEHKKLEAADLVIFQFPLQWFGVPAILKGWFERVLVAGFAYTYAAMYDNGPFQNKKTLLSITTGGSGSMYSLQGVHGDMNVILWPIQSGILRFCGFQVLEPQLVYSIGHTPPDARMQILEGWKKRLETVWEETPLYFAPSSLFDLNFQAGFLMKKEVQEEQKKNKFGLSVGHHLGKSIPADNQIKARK
# protocol_summary: Activation of Quinone reductase-1 in mouse Hepa-1c1c7 cells assessed as induction ratio at 20 ug/ml after 48 hrs by MTT assay
# Format: cell-based
Where a SMILES comes first, the peptide text is derived from it. Side-chain parts run from the residue outwards. The star is where a group is joined. Cbz = O=C(OCc1ccccc1)*; Boc = CC(C)(C)OC(=O)*
No unit in the answer, please; the number alone is enough.

The following compounds have reported results that may help.
Query: Identify the measured Ratio of `C[C@H](NC(=O)OCc1ccccc1)C(=O)N[C@H](CO)C(=O)O` for NAD(P)H dehydrogenase [quinone] 1 (Mus musculus) (UniProt Q64669).
Response: 0.9

Query: Follow-up entry: `O=C(N[C@@H](Cc1ccccc1)C(=O)N[C@@H](CO)C(=O)O)OCc1ccccc1`
Response: 1.2

Query: Follow-up entry: `C[C@H](OC(=O)CNC(=O)OC(C)(C)C)[C@H](NC(=O)[C@@H](N)Cc1ccccc1)C(=O)O`
Response: 1

Query: Follow-up entry: `CC(C)(C)OC(=O)NCC(=O)n1nnc2ccccc21`
Response: 1.1

Query: Follow-up entry: C[C@H](NC(=O)OCc1ccccc1)C(=O)N[C@@H](COC(=O)CNC(=O)OC(C)(C)C)C(=O)O (Cbz-Ala-Ser([Gly-Boc])-OH)
Response: 2.5

Proceeding to the next compound to report its Ratio.
Query: Identify the measured Ratio of `C[C@H](OC(=O)CNC(=O)OC(C)(C)C)[C@H](NC(=O)[C@H](Cc1ccccc1)NC(=O)OCc1ccccc1)C(=O)O` for NAD(P)H dehydrogenase [quinone] 1 (Mus musculus) (UniProt Q64669).
Response: 0.9
